Assay: NCI Yeast Anticancer Drug Screen. Data for the rad18 strain (AID 177)
Conditions: S. cerevisiae rad18 mutant growth inhibition; at 100.0 µM; stronger effect = higher value
Compounds without any hit were thinned out: in the full panel of roughly 79,000, 15% have a hit.
Property Label: growth inhibition (%)
Numbers only; they are read as %.

The cases that follow already have their growth inhibition on record.
Query Smiles	growth inhibition (%)
Cc1cc(C)c2[s+]snc2c1	49
O=Cc1ccccc1C=O	88

Return reported growth inhibition; argument: CC(C)=CCc1c2c(c(O)c3c(=O)c(-c4ccc(O)c(O)c4)coc13)C=CC(C)(C)O2
89

###

Experiment: NCI Yeast Anticancer Drug Screen. Data for the mec2-1 strain (AID 157)
Conditions: S. cerevisiae mec2-1 strain, at 3.7 µM, stronger effect = higher value
Compounds without any hit were thinned out: in the full panel of roughly 79,000, 15% have a hit.
Recorded growth inhibition for the following molecules
Kindly answer with a numeric value in %, unit omitted.

Molecule	Property Label	Recorded Number
COC(=O)C1=C(C(=O)OC)CC(n2nnc(C(=O)OC)c2C(=O)OC)=CC1	growth inhibition	-6
O=[N+]([O-])c1cc(Cl)ccc1S(=O)(=O)c1ccc(Cl)cc1[N+](=O)[O-]	growth inhibition	10
COc1ccc2cc(C(C)C(=O)N3CCOC3=O)ccc2c1 (stereo not drawn)	growth inhibition	-28
CCCCN(CCCC)c1ccc(N=Nc2ccc(S(=O)(=O)O)cc2)cc1	growth inhibition	43
COc1cc2oc3ccccc3c(=O)c2cc1CSc1ccccc1N	growth inhibition	-1

Please look up its growth inhibition: Cc1cccc(C)c1NC(=O)C(C#N)C1=C(Cl)C(=O)c2ccccc2C1=O (stereo not drawn)
62

Again, but for O=C1c2ccccc2-c2cc3ccccc3c(=O)n21
19

Also CCOC(=O)C(Cc1c2ccccc2cc2ccccc12)(NC(C)=O)C(=O)OCC , if possible.
0

###

Reported growth inhibition values follow for various compounds
Experiment: NCI Yeast Anticancer Drug Screen. Data for the sgs1 mgt1 strain (AID 161);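 note: 0% = growth of cultures given vehicle only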
Details: S. cerevisiae sgs1 mgt1 strain, at 5.0 µM (retest, dose inferred, filed as 0.5), stronger effect = higher value
Compounds without any hit were thinned out: in the full panel of roughly 79,000, 15% have a hit.
Hi! Could you send only the number? It should be in %, unit omitted.

As a guide, the following entries are already answered.
Compound	Property Label	Recorded Number
COC(=O)C(Cc1c[nH]c2ccccc12)N1CN(C)c2ccccc2C1=O (configuration not stated)	growth inhibition	-2
CCCCCCCCCCCCCCCCCCN(C)C(COC)COP(=O)([O-])OCC[N+](C)(C)C (configuration not stated)	growth inhibition	3
CC(=O)NC(c1nc2cc(C)c(C)cc2[nH]1)c1nc2cc(C)c(C)cc2[nH]1	growth inhibition	-16
O=[N+]([O-])[O][Sn]([O][Sn]([O][N+](=O)[O-])([c]1ccccc1)[c]1ccccc1)([c]1ccccc1)[c]1ccccc1	growth inhibition	35
CCOC(=O)CC1(C)/C(=N\Nc2ccc([N+](=O)[O-])cc2[N+](=O)[O-])CCC2C1CCC1(C)C(C(C)CCCC(C)C)CCC21 (configuration not stated)	growth inhibition	6

Fill in: growth inhibition of O=C(/C(=C/c1ccc(O)cc1)c1ccccc1)c1ccccc1 is ___
39

Next compound up: NC(N)=NC(N)=Nc1ccccc1 (tested in a mixture with another compound)
3

Next compound up: NC(=S)N1N=C2c3ccccc3CC[C@H]2[C@@H]1c1ccc(Cl)cc1
-15
